- test system: peroxiredoxin 1 (Prx1) (Homo sapiens, UniProt Q06830)
- Sequence (Q06830 2-199): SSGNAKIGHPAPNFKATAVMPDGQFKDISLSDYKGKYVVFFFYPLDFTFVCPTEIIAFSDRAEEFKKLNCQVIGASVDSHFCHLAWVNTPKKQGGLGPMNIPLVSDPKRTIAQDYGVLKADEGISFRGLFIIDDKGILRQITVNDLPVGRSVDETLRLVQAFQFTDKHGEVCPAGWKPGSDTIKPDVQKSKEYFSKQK
- test method notes: glutamine synthetase protection assay with recombinant Prx1
reported property: pIC50
Give bare numbers, as −log10 of the molar value.

Task item: Any idea what its pIC50 is? The compound is `CCC[C@H]1O[C@@H]2CC(=O)O[C@@H]2C2=C1C(=O)c1c(O)cccc1C2=O`
Reply: 6.70

---

- test system: peroxiredoxin 2 (Prx2) (Homo sapiens, UniProt P32119)
- Sequence (P32119 2-198): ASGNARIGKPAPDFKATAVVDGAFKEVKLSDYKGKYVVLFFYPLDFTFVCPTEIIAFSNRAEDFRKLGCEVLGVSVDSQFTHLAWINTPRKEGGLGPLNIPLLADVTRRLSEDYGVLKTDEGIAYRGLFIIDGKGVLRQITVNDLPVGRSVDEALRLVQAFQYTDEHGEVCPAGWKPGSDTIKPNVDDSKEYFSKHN
- test method notes: glutamine synthetase protection assay with recombinant Prx2
reported property: IC50 (µM)
Give bare numbers, in µM.

Task item: Identify the measured IC50 of `CCC[C@H]1O[C@@H]2CC(=O)O[C@@H]2C2=C1C(=O)c1c(O)cccc1C2=O` for peroxiredoxin 2 (Prx2) (Homo sapiens, UniProt P32119).
Reply: 4.2
